Assignment: determine reported RP-LC retention time for the given compounds.
- Assay: gradient 5% acetonitrile 3 min, to 50% in 2 min, to 85% in 15 min, held 3 min, 100 µL/min
- Conditions used: column: Zorbax Extend-C18 2.1 x 50 mm; eluents: water / acetonitrile, 0.1% formic acid
Reply numerically in s, unit not repeated.

Item `CC(C)CNC(=O)c1c2c(nc3ccccc13)CCCC2` : provide RP-LC retention time
639

Recall and state the measured RP-LC retention time for `Cc1ccccc1-c1nc(-c2cccc(-c3ccnn3C)c2)no1` .
1220

Note RP-LC retention time for the compound shown: CCOC(=O)c1noc2ncnc(N3CCC(c4ccccc4)C3)c12 (stereo not drawn)
1030

====

Kindly state RP-LC retention time for each of the entries shown.
- Assay: gradient 5% acetonitrile 3 min, to 50% in 2 min, to 85% in 15 min, held 3 min, 100 µL/min
- Conditions used: column: Zorbax Extend-C18 2.1 x 50 mm; eluents: water / acetonitrile, 0.1% formic acid
A number alone suffices; assume s.

Identify measured RP-LC retention time corresponding to `Cc1nnc(-c2cc(C)n(CC(=O)Nc3cccc(C)c3C)c2C)o1`
767

Please report RP-LC retention time for the following molecule: `COc1ccc(-c2nc(NCCC(C)C)c3ccccc3n2)cc1`
844

Input Cc1cc(-c2c(C)sc(C)c2S(=O)(=O)NCC(C)c2ccccc2)n[nH]1 (stereo not drawn) , output reported RP-LC retention time.
1140

====

- Assay: gradient 5% acetonitrile 3 min, to 50% in 2 min, to 85% in 15 min, held 3 min, 100 µL/min
- Conditions used: column: Zorbax Extend-C18 2.1 x 50 mm; eluents: water / acetonitrile, 0.1% formic acid
Mark each entry MET if its RP-LC retention time sits below 700 s, and NOT MET for all others.

Report whether reported RP-LC retention time is lower than 700 s (strictly) for `Cc1sc(NC(=O)c2ccccc2)c(CN(C)C)c1C`
MET

Lab note: confirm whether the reported RP-LC retention time for this molecule is below 700 s, equality not counting. molecule: `Cc1ccc(NC(=O)N2CCN(c3ccc(=O)n(-c4ccccc4)n3)CC2)cc1`
MET

Does this molecule meet the criterion RP-LC retention time < 700 s? COc1ccc(NC(=O)C2CCCN2S(=O)(=O)c2ccc3c(c2)CCCC(=O)N3)cc1Cl (centres undefined)
NOT MET

Confirm or reject: RP-LC retention time of Cc1nc2cc(N3CCCC(C(=O)N4CCN(c5ccccn5)CC4)C3)cnc2nc1C (centres undefined) lies strictly below 700 s
MET

Below 700 s on RP-LC retention time? Entry CC(C)CC(NC(=O)c1ccccc1)C(=O)Nc1nc2ccccc2[nH]1 (centres undefined)
NOT MET

Find out if reported RP-LC retention time for COc1ccc(C(O)Cn2ccn3nc(-c4ccc(C)c(C)c4)cc3c2=O)cc1 (centres undefined) is less than 700 s
NOT MET

Bench note: check whether `Cc1cccc(OCC(=O)N2CCc3cc(-c4ccno4)ccc32)c1` shows RP-LC retention time below 700 s
NOT MET

Given the entry `Cc1ccc(Cl)cc1N1CCN(C(=O)CN2C(=O)CN(C)C(=O)c3ccccc32)CC1` , would its reported RP-LC retention time be below 700 s?
NOT MET

Here's an entry: `CN(C)CCn1c2c(c(SCC(=O)Nc3ccc(Br)cc3)nc1=O)CCC2` . Is its RP-LC retention time below 700 s?
MET

I wonder whether `Cc1sc(C)c(S(=O)(=O)NCc2ccc(N(C)C)cc2)c1-c1cc(C(F)(F)F)on1` has RP-LC retention time below 700 s. Can you tell?
NOT MET

Does the reported RP-LC retention time of the following molecule sit strictly below 700 s? `COCc1cc(=O)n(CC(=O)Nc2cccc(C)c2)c(N)n1`
MET

Is RP-LC retention time strictly under 700 s for the entry `Cc1cccc(N2CCN(C(=O)c3cc4c(=O)n(C)ccc4n3C)CC2)c1C` ?
NOT MET

Confirm or reject: RP-LC retention time of CC1CN(c2nc3ccccc3nc2SCC(=O)N2CCOCC2)CC(C)O1 (centres undefined) lies strictly below 700 s
NOT MET

Given the entry `CCc1nccn1Cc1nc(-c2ccc(C)cc2)no1` , would its reported RP-LC retention time be below 700 s?
MET

Dear reviewer, please state whether O=C1NCCc2ccc(NC(=O)C3CC(=O)N(c4ccc(Cl)cc4)C3)cc21 (centres undefined) has RP-LC retention time strictly beneath 700 s.
MET

Does the reported RP-LC retention time of `CN(C)c1nc2cc(C(=O)N3CCC4(CC3)OCCO4)sc2n1-c1ccc(F)cc1` stay below 700 s?
MET

Please indicate whether the reported RP-LC retention time of `CC(C)(C)NC(=O)N1CCOc2ccccc21` is strictly below 700 s.
NOT MET

Check if RP-LC retention time falls below 700 s for CCc1onc(C)c1C1CCCN1C(=O)CCc1ccccc1 (centres undefined) .
NOT MET

For `Cc1ccc(-c2nnc(-c3nn(C)c4c3CN(S(=O)(=O)Cc3ccccc3Cl)CC4)o2)cc1` , is the recorded RP-LC retention time below the cut-off of 700 s?
NOT MET

I'd appreciate it if you could check whether `CNC(=O)Cc1csc(NC(=O)c2ccc(OCC(=O)C3CC3)cc2)n1` has RP-LC retention time smaller than 700 s.
MET

Please state whether RP-LC retention time is below 700 s for CCC(C)NC(=O)N1CCN(c2cc(-c3ccc(OC)c(OC)c3)ncn2)CC1 (centres undefined)
MET

Does the reported RP-LC retention time of `CN(C)CCCN1c2ccccc2Sc2ccc(C(F)(F)F)cc21` stay below 700 s?
NOT MET

Threshold test, RP-LC retention time < 700 s: `O=C(Cc1csc2nc(-c3ccccc3)cn12)NCc1ccc2c(c1)OCO2`
NOT MET

Hi there! Is RP-LC retention time for `Cc1ccc(S(=O)(=O)NCc2c(-c3ccccc3)nc3sc(C)nn23)cc1` below 700 s, do you know?
NOT MET

====

What RP-LC retention time was measured for each of the following?
- Assay: gradient 5% acetonitrile 3 min, to 50% in 2 min, to 85% in 15 min, held 3 min, 100 µL/min
- Conditions used: column: Zorbax Extend-C18 2.1 x 50 mm; eluents: water / acetonitrile, 0.1% formic acid
Reply with just the number (in s).

Complete the entry with RP-LC retention time for O=C(NCc1ccc(F)cc1Cl)C1CCCN(c2nccnc2Sc2ccccc2)C1 (stereo not given)
1100

State, in one line, measured RP-LC retention time of `CCOC(=O)c1c(S(=O)(=O)N2CCC(C(=O)Nc3cc(C)cc(C)c3)CC2)c(C)n(C)c1C`
942

Return value of RP-LC retention time for input `Cc1csc(-c2cc(S(=O)(=O)Nc3ccc(F)cc3Cl)cn2CC(=O)N2CCCC2)n1` , no commentary.
944

Consider the compound Cc1ccc(NC(=O)N2CCCC2c2nc(-c3ccccc3C)no2)cc1 (stereo not given) and give its recorded RP-LC retention time.
598

Indicate its recorded RP-LC retention time; the compound in question is `Cc1ccc(-n2cc(C(=O)N3CCC(C(N)=O)CC3)nn2)cc1`
641

Identify the reported RP-LC retention time for the following entry. CCN1CCCC1CNC(=O)c1nnc(Cc2cc(OC)c(OC)c(OC)c2)o1 (stereo not given)
586

State, in one line, measured RP-LC retention time of COc1cc(C2OC(c3ccc(Br)cc3)=NN2C(C)=O)ccc1OC(C)=O (stereo not given)
1000

Retrieve RP-LC retention time measured for `O=C(Nc1ccccc1)N1CCN(Cc2nc3cc(Cl)ccc3o2)CC1` and print it.
716

Assign RP-LC retention time to the following record: `CN(C)c1ccc(CNc2ccc(-c3nc(-c4ccc(F)cc4)no3)cn2)cc1`
889

Output measured RP-LC retention time for this item: `CN(C)CCn1nnc2cc(-c3noc(-c4ccccc4)n3)ccc21`
651

====

- Assay: gradient 5% acetonitrile 3 min, to 50% in 2 min, to 85% in 15 min, held 3 min, 100 µL/min
- Conditions used: column: Zorbax Extend-C18 2.1 x 50 mm; eluents: water / acetonitrile, 0.1% formic acid
Quantity: RP-LC retention time (s)
# unit: s | format: bare number

Input `COc1ccccc1C1=NS(=O)(=O)c2cc(S(=O)(=O)N3CCOCC3)ccc2N1` , output reported RP-LC retention time.
718

Return value of RP-LC retention time for input `CN(C)CCNC(=O)C1CCN(C(=O)c2cc3ccsc3n2Cc2ccc(Cl)cc2)CC1` , no commentary.
685

Indicate its recorded RP-LC retention time; the compound in question is `COc1cc(OC)cc(-c2nc(-c3ccc4c(c3)ncn4CCN3CCCC3)no2)c1`
684

====

- Assay: gradient 5% acetonitrile 3 min, to 50% in 2 min, to 85% in 15 min, held 3 min, 100 µL/min
- Conditions used: column: Zorbax Extend-C18 2.1 x 50 mm; eluents: water / acetonitrile, 0.1% formic acid
Classification by RP-LC retention time | ranges: low value: < 700 s; medium value: ≥ 700 s and < 900 s; high value: ≥ 900 s

Please report the category associated with `Cc1cccc(C)c1Nc1c(-c2ccc(N(C)C)cc2)nc2ncccn12` , nothing else.
medium value

Could you place `Cc1cccc(S(=O)(=O)N2CCN(c3cnn4c(C5CC5)nnc4c3)CC2)c1` in its proper category? Many thanks.
medium value

Class? Entry: `O=C(CCSc1ccc(Cl)cc1)Nc1nc(-c2ccccc2)cs1`
high value

Which category fits this record: `Cc1cc(N2CCN(C(=O)Cc3ccc(F)cc3)CC2)nc2nncn12`
low value

Class (by measured RP-LC retention time) for `Cc1cc(Br)ccc1-c1ccc(CNCCO)o1`
low value

Please let me know in which category the item `CCCCn1nc2ccc(S(=O)(=O)N3CCOCC3)cn2c1=O` belongs.
medium value

Please indicate the class for `O=C(NCCC1=CCCCC1)c1nnc(-c2ccc(S(=O)(=O)N3CCOCC3)cc2)o1` based on its RP-LC retention time.
high value

Which RP-LC retention time category applies to CCCN1C(=O)C(NC(=O)c2ccc(F)cc2)(C(F)(F)F)C2=C1CC(C)(C)CC2=O (stereo not given) here?
high value
